meta.source: PubChem BioAssay (NCI)

Tested on: CCRF-CEM leukemia
assay.method.text: NCI-60 one-dose screen, 48 h
test.parameters: 10 µM
Compounds without any hit were thinned out: in the full panel of roughly 83,000, 20% have a hit. Calls of active or inactive are those of the source. The calls were made as follows: active = growth percent below 10; inactive = the rest.
Response enum: True (active), False (inactive)

Study these solved cases before continuing.
{"columns": ["chemical.structure", "target.of.assay", "class.assignment"],
 "data": [
  ["CN(Cc1cnc2nc(N)nc(N)c2n1)c1ccc(C(=O)N[C@@H](CCC(=O)O)C(=O)O)cc1", "CCRF-CEM leukemia", "False"],
  ["CC[C@@]1(O)C(=O)OCc2c1cc1n(c2=O)Cc2cc3c(CN(C)C)c(O)ccc3nc2-1", "CCRF-CEM leukemia", "True"],
  ["CC/C(=C(\\c1ccccc1)c1ccc(OCCN(C)C)cc1)c1ccccc1", "CCRF-CEM leukemia", "False"]
]}

Shifting focus to the compound that follows.
Q: Give the logged outcome of this assay for the following compound: COc1ccc2sc3cccc(NCCN(C)C)c3c(=O)c2c1
A: False

###

System: SR leukemia
assay.method.text: NCI-60 one-dose screen, 48 h
test.parameters: 10 µM
About 83,000 compounds went through this panel and 20% of them were active in at least one assay; those are over-represented in the sample as a whole. The source made the active and inactive calls. Rule for the calls: active = growth percent below 10; inactive = the rest.
Response enum: true (1) = active, false (0) = inactive

Q: Give the logged outcome of this assay for the following molecule: CC[C@@]1(O)C(=O)OCc2c1cc1n(c2=O)Cc2cc3c(CN(C)C)c(O)ccc3nc2-1
A: true (1)

Q: Give the logged outcome of this assay for the following molecule: COc1ccc2sc3cccc(NCCN(C)C)c3c(=O)c2c1
A: true (1)

Q: Give the logged outcome of this assay for the following molecule: CN(Cc1cnc2nc(N)nc(N)c2n1)c1ccc(C(=O)N[C@@H](CCC(=O)O)C(=O)O)cc1
A: false (0)

Q: Give the logged outcome of this assay for the following molecule: CC/C(=C(\c1ccccc1)c1ccc(OCCN(C)C)cc1)c1ccccc1
A: true (1)
